Overview of reported β2 Intrinsic Activity across a group of molecules:
- target_of_assay: Adrenergic β2 (Homo sapiens)
- Construct: Adherent H292 cells are removed from tissue culture flasks by treatment with Accutase™ cell detachment solution; endogenous in cells; host or cells: H292 cells
- Sequence (P07550 whole entry): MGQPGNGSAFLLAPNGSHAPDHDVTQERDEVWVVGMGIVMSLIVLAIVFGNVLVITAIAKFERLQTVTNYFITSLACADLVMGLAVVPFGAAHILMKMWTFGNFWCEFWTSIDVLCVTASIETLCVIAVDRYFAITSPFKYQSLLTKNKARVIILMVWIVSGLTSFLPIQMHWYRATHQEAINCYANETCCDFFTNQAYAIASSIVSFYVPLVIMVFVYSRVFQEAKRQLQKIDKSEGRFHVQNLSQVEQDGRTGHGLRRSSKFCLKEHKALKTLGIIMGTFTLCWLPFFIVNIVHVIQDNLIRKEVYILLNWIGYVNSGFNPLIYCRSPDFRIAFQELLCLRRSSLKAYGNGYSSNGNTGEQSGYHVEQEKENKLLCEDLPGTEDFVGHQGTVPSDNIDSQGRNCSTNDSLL
- method: Adrenergic β2 mediated cAMP production in H292 cells (AlphaScreen), concentration response
- Format: cell-based
- experimental_context: fraction relative to the maximum activity determined for formoterol
Write the value as a bare number.

The examples below pair each entry with its known result.
[
  {
    "molecule": "O=C1COc2c(CCNCCN(C(=O)CCOCCc3cccc(CN4CCC5(CC4)CN(C(=O)c4ccc(Cl)s4)CCO5)c3)C3CCCCC3)ccc(O)c2N1",
    "target_of_assay": "Adrenergic β2 (Homo sapiens)",
    "β2 Intrinsic Activity": 1.0
  },
  {
    "molecule": "O=C1COc2c(CCNCCN(C(=O)CCOCCc3cccc(CN4CCC5(CC4)CN(C(=O)c4csc(C6CCC6)n4)CCO5)c3)C3CCCCC3)ccc(O)c2N1",
    "target_of_assay": "Adrenergic β2 (Homo sapiens)",
    "β2 Intrinsic Activity": 1.0
  },
  {
    "molecule": "CC(C)c1nc(C(=O)N2CCOC3(CCN(Cc4cccc(CCOCCC(=O)N(CCF)CCNCCc5ccc(O)c6c5OCC(=O)N6)c4F)CC3)C2)cs1 [Example 72, ditrifluoroacetate]",
    "target_of_assay": "Adrenergic β2 (Homo sapiens)",
    "β2 Intrinsic Activity": 0.9
  },
  {
    "molecule": "Cc1cc(C(=O)N2CCOC3(CCN(Cc4cccc(CCOCCC(=O)N(CCNCCc5ccc(O)c6c5OCC(=O)N6)C5CCCCC5)c4)CC3)C2)cs1",
    "target_of_assay": "Adrenergic β2 (Homo sapiens)",
    "β2 Intrinsic Activity": 0.9
  },
  {
    "molecule": "CC(C)c1nc(C(=O)N2CCOC3(CCN(Cc4cccc(CCOCCC(=O)N(CCNCCc5ccc(O)c6c5OCC(=O)N6)[C@H](C)C(C)C)c4F)CC3)C2)cs1",
    "target_of_assay": "Adrenergic β2 (Homo sapiens)",
    "β2 Intrinsic Activity": 1.0
  }
]

Let's switch to this molecule now.
The measured β2 Intrinsic Activity associated with "CCc1ccc(C(=O)N2CCOC3(CCN(Cc4cccc(CCOCCC(=O)N(CCNCCc5ccc(O)c6c5OCC(=O)N6)C5CCCCC5)c4)CC3)C2)s1" reads 1.1

* * *

Hi! I'm sharing some IC50 results obtained with human muscarinic acetylcholine M3 receptor (Homo sapiens).
Sequence (P20309 whole entry): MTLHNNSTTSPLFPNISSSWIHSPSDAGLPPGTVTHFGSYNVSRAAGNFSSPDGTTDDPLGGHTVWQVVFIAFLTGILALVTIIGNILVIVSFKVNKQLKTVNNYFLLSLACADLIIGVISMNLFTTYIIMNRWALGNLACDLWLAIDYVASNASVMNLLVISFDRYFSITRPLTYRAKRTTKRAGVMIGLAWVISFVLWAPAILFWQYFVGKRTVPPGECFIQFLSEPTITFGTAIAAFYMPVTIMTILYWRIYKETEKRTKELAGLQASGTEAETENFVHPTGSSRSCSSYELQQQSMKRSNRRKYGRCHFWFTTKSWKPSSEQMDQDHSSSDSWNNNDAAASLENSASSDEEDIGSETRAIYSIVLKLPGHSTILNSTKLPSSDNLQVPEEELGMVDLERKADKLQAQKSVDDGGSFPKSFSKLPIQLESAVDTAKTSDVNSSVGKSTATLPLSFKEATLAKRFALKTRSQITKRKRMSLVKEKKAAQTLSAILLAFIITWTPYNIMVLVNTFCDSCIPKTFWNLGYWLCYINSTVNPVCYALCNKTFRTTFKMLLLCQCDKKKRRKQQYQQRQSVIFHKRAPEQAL
I'd appreciate it if you wrote the number followed by its unit.

The following compounds have reported results that may help.
[
  {
    "compound": "CCN(CCNCCc1ccc(O)c2[nH]c(=O)sc12)C(=O)CCOCCCc1cccc(CN2CCC3(CC2)CN(C(=O)c2csc(C(C)C)n2)CCO3)c1F [Example 66, ditrifluoroacetate]",
    "observed_result": "0.501 nM"
  },
  {
    "compound": "O=C1COc2c(CCNCCN(C(=O)CCOCCc3cccc(CN4CCC5(CC4)CN(C(=O)[C@@H]4C[C@H]4c4ccccc4)CCO5)c3)C3CCCCC3)ccc(O)c2N1",
    "observed_result": "0.316 nM"
  },
  {
    "compound": "CCc1nc(C(=O)N2CCOC3(CCN(CCc4ccc(CCOCCC(=O)N(CCCCCCO)CCNCCc5ccc(O)c6[nH]c(=O)sc56)cc4)CC3)C2)cs1 [Example 76, diformate]",
    "observed_result": "0.631 nM"
  },
  {
    "compound": "CCN(CCNCCc1ccc(O)c2[nH]c(=O)sc12)C(=O)CCOCCc1csc(CN2CCC3(CC2)CN(C(=O)c2csc(C(C)C)n2)CCO3)c1 [Example 48, ditrifluoroacetate]",
    "observed_result": "0.2 nM"
  },
  {
    "compound": "CCN(CCNCCc1ccc(O)c2[nH]c(=O)sc12)C(=O)CCOCCc1cccc(CN2CCC3(CC2)CN(C(=O)c2csc(C(C)C)n2)CCO3)c1Cl [Example 28, ditrifluoroacetate]",
    "observed_result": "2 nM"
  },
  {
    "compound": "CCN(CCNCCc1ccc(O)c2[nH]c(=O)sc12)C(=O)CCOCCc1ccc(CCN2CCC3(CC2)CN(C(=O)c2csc(C(C)C)n2)CCO3)cc1 [Example 1, ditrifluoroacetate]",
    "observed_result": "2 nM"
  },
  {
    "compound": "CCc1nc(C(=O)N2CCOC3(CCN(Cc4cccc(CCOCCC(=O)N(CC)CCNCCc5ccc(O)c6[nH]c(=O)sc56)c4Cl)CC3)C2)cs1 [Example 26, ditrifluoroacetate]",
    "observed_result": "0.631 nM"
  },
  {
    "compound": "CC(C)c1nc(C(=O)N2CCOC3(CCN(Cc4cccc(SCCOCCC(=O)N(C)CCNCCc5ccc(O)c6[nH]c(=O)sc56)c4)CC3)C2)cs1 [Example 55, ditrifluoroacetate]",
    "observed_result": "0.126 nM"
  },
  {
    "compound": "CC(C)c1nc(C(=O)N2CCOC3(CCN(Cc4cccc(CCOCCC(=O)N(CCNCCc5ccc(O)c6c5OCC(=O)N6)C(C)C)c4F)CC3)C2)cs1 [Example 16, ditrifluoroacetate]",
    "observed_result": "0.251 nM"
  },
  {
    "compound": "CC(C)c1nc(C(=O)N2CCOC3(CCN(CCc4cccc(CCOCCC(=O)N(CCNCCc5ccc(O)c6c5OCC(=O)N6)C5CCCC5)c4)CC3)C2)cs1 [Example 39, ditrifluoroacetate]",
    "observed_result": "1 nM"
  }
]

Now take the following compound into account.
Summary for this compound, "CCCCc1nc(C(=O)N2CCOC3(CCN(Cc4cccc(CCOCCC(=O)N(CCNCCc5ccc(O)c6c5OCC(=O)N6)C5CCCCC5)c4)CC3)C2)cs1" : IC50 is 0.316 nM

* * *

- target_of_assay: human muscarinic acetylcholine M3 receptor (Homo sapiens)
hey, just use Yes if measured IC50 is less than 0.3 nM, otherwise No

Solved entries:
[
  {
    "compound": "CCN(CCNCCc1ccc(O)c2[nH]c(=O)sc12)C(=O)CCOCCc1cc(CN2CCC3(CC2)CN(C(=O)c2csc(C)n2)CCO3)ccc1Cl [Example 46]",
    "answer_label": "No"
  },
  {
    "compound": "CC(C)c1nc(C(=O)N2CCOC3(CCN(Cc4cccc(CCOCCC(=O)N(CCNCCc5ccc(O)c6c5OCC(=O)N6)Cc5ccccc5)c4F)CC3)C2)cs1 [Example 8, ditrifluoroacetate]",
    "answer_label": "Yes"
  },
  {
    "compound": "CCN(CCNCCc1ccc(O)c2c1OCC(=O)N2)C(=O)CCOCCc1cccc(CN2CCC3(CC2)CN(C(=O)c2csc(C4CCCC4)n2)CCO3)c1F [Example 25, ditrifluoroacetate]",
    "answer_label": "Yes"
  }
]

Problem: For the compound CC(C)c1nc(C(=O)N2CCOC3(CCN(CCc4cccc(CCOCCC(=O)N(CCNCCc5ccc(O)c6c5OCC(=O)N6)Cc5ccccc5)c4)CC3)C2)cs1 [Example 41, ditrifluoroacetate] , is IC50 under 0.3 nM? No

IC50 strictly < 0.3 nM for this compound? CCCC[C@@H](C)N(CCNCCc1ccc(O)c2c1OCC(=O)N2)C(=O)CCOCCc1ccc(CCN2CCC3(CC2)CN(C(=O)c2csc(C)n2)CCO3)cc1 [Example 6, ditrifluoroacetate] Yes

* * *

For human muscarinic acetylcholine M3 receptor (Homo sapiens, UniProt P20309), measured IC50 is reported for the entries below.
Answer with a number only, understood to be in pM.

Guide cases for IC50, answers given:
[
  {
    "molecule": "CC(C)c1nc(C(=O)N2CCOC3(CCN(CCOc4cccc(CCOCCC(=O)N(CCNCCc5ccc(O)c6c5OCC(=O)N6)C5CCCCC5)c4)CC3)C2)cs1 [Example 53, ditrifluoroacetate]",
    "observed_result": 7940
  },
  {
    "molecule": "CCc1nc(C(=O)N2CCOC3(CCN(Cc4cccc(CCOCCC(=O)N(CCNCCc5ccc(O)c6c5OCC(=O)N6)[C@H](C)CC)c4Cl)CC3)C2)cs1 [Example 31, ditrifluoroacetate]",
    "observed_result": 398
  },
  {
    "molecule": "CCCC[C@@H](C)N(CCNCCc1ccc(O)c2c1OCC(=O)N2)C(=O)CCOCCc1cccc(CCN2CCC3(CC2)CN(C(=O)c2csc(C)n2)CCO3)c1 [Example 38, ditrifluoroacetate]",
    "observed_result": 398
  },
  {
    "molecule": "CC(C)c1nc(C(=O)N2CCOC3(CCN(Cc4cccc(OCCCOCCC(=O)N(CCNCCc5ccc(O)c6c5OCC(=O)N6)C5CCCCC5)c4)CC3)C2)cs1 [Example 60, ditrifluoroacetate]",
    "observed_result": 200
  }
]

Field IC50 (human muscarinic acetylcholine M3 receptor (Homo sapiens, UniProt P20309)), entry CCCC[C@@H](C)N(CCNCCc1ccc(O)c2c1OCC(=O)N2)C(=O)CCOCCc1cccc(CN2CCC3(CC2)CN(C(=O)c2csc(C(C)C)n2)CCO3)c1F [Example 18, ditrifluoroacetate] : 398
